Recorded measurements of Emax, one per entry
Biological target: Neurolysin, mitochondrial (Homo sapiens)
Sequence (Q9BYT8 38-704 limits assumed): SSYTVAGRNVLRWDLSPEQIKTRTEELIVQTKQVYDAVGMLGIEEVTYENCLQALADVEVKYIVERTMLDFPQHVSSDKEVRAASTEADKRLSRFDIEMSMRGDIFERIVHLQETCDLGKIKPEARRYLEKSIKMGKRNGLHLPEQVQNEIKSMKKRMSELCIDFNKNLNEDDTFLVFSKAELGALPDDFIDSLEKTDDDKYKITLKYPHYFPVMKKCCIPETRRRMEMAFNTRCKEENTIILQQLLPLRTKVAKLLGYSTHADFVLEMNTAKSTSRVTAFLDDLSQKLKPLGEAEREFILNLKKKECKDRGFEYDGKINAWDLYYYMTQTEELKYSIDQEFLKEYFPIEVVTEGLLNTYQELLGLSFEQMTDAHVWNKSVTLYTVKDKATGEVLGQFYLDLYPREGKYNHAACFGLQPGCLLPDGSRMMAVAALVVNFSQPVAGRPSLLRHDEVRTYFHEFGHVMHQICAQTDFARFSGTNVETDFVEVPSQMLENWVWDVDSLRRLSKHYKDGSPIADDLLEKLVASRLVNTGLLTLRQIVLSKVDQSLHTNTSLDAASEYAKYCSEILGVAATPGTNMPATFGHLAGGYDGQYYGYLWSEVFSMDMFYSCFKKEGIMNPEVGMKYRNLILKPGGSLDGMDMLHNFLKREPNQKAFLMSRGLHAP
Assay: Activation of Nln (unknown origin) using Mca-Pro-Leu-Gly-Pro-D-Lys(DNP)- OH as substrate preincubated for 10 mins followed by substrate addition measured for 20 mins by fluorescence based assay relative to control
Details: filed as activator, time 30.0 min
Peptide text beside a SMILES is read from it. * marks the point of attachment. NHPhenethyl = c1ccc(CCN*)cc1
assayMetric: Emax (%)

{"compound": "N[C@@H](Cc1c[nH]cn1)C(=O)NCc1ccc2ccccc2c1", "assayMetric": "Emax", "reportedValue": 211}
{"compound": "N[C@@H](Cc1c[nH]cn1)c1ncc(-c2ccc(Cl)cc2)[nH]1", "assayMetric": "Emax", "reportedValue": 318}
{"compound": "N[C@@H](Cc1c[nH]cn1)C(=S)NCc1cccc2ccccc12", "assayMetric": "Emax", "reportedValue": 279}
{"compound": "N[C@@H](Cc1c[nH]cn1)c1ncc(-c2cccc3ccccc23)[nH]1", "assayMetric": "Emax", "reportedValue": 244}
{"compound": "N[C@@H](Cc1c[nH]cn1)C(=O)N1CCC(Cc2ccccc2F)CC1", "assayMetric": "Emax", "reportedValue": 237}
{"compound": "N[C@@H](Cc1c[nH]cn1)C(=O)NCC(=O)c1ccc(Cl)cc1", "assayMetric": "Emax", "reportedValue": 130}
{"compound": "N[C@H](Cc1c[nH]cn1)C(=O)N1CCC(Cc2ccccc2F)CC1", "assayMetric": "Emax", "reportedValue": 272}
{"compound": "N[C@@H](Cc1c[nH]cn1)C(=O)NCCc1ccc(Cl)cc1", "assayMetric": "Emax", "reportedValue": 404}
{"compound": "N[C@H](Cc1c[nH]cn1)c1ncc(-c2ccc(Cl)cc2)[nH]1", "assayMetric": "Emax", "reportedValue": 282}
{"compound": "CN(Cc1cccc2ccccc12)C(=O)[C@@H](N)Cc1c[nH]cn1", "assayMetric": "Emax", "reportedValue": 345}
{"compound": "N[C@@H](Cc1c[nH]cn1)c1ncc(-c2ccc3ccccc3c2)[nH]1", "assayMetric": "Emax", "reportedValue": 268}
{"compound": "N[C@@H](Cc1c[nH]cn1)C(=O)N(CCc1c[nH]c2ccccc12)Cc1ccccc1", "assayMetric": "Emax", "reportedValue": 307}
{"compound": "N[C@@H](Cc1c[nH]cn1)C(=O)N[C@@H](Cc1ccccc1)C(=O)NCCc1ccccc1 (H-His-Phe-NHPhenethyl)", "assayMetric": "Emax", "reportedValue": 178}
{"compound": "N[C@@H](Cc1c[nH]cn1)C(=O)NCc1cccc2ccccc12", "assayMetric": "Emax", "reportedValue": 264}
{"compound": "N[C@H](Cc1c[nH]cn1)c1ncc(-c2ccc3ccccc3c2)[nH]1", "assayMetric": "Emax", "reportedValue": 138}
{"compound": "N[C@@H](Cc1c[nH]cn1)C(=O)Nc1ccccc1", "assayMetric": "Emax", "reportedValue": 467}
{"compound": "N[C@@H](Cc1c[nH]cn1)C(=O)N1CCc2ccccc2C1", "assayMetric": "Emax", "reportedValue": 380}
{"compound": "CN(Cc1cccc2ccccc12)C(=O)[C@H](N)Cc1c[nH]cn1", "assayMetric": "Emax", "reportedValue": 324}

====

Experiment: Permeability coefficient in co-culture of primary mouse astrocytes and immortalized mouse endothelial cells at 10 ug/ml by BBB assay
Type: ADME
Conditions: dose 10 µg/ml, read-out: Kp (converted)
Peptide text beside a SMILES is read from it.
With a cut-off of 6 ×10⁻⁶ cm/s, any Papp at 10 ug/ml strictly below it is called Y; any Papp at 10 ug/ml meeting it or above is called N.

{"molecule": "N[C@@H](Cc1c[nH]cn1)c1ncc(-c2cccc3ccccc23)[nH]1", "category": "N"}
{"molecule": "N[C@@H](Cc1c[nH]cn1)C(=O)Nc1cccc2cccnc12", "category": "N"}
{"molecule": "N[C@@H](Cc1c[nH]cn1)C(=O)N[C@@H](Cc1ccccc1)C(=O)O (H-His-Phe-OH)", "category": "Y"}
{"molecule": "N[C@@H](Cc1c[nH]cn1)C(=O)NCc1cccc2ccccc12", "category": "N"}
